Readings of protein stability index for the listed sequences
Test Summary: protein stability index of a GFP-peptide fusion (yeast GPS) (PSI 1-4); higher = more stable; sorted into four equal gates, so the index is relative within each strain
Condition Description: san1∆

- Sequence Text: "DVLKSQANTEPENITKR [MCD1]"
  protein stability index: 2.98
- Sequence Text: "ELTQVPSARQKYMVKGG [UBP6]"
  protein stability index: 2.95
- Sequence Text: "VEEAHDFNMKLAINAKT [RPB2]"
  protein stability index: 3.08
- Sequence Text: "ATSSTNANAGLFNKPPS [YOR098C/NUP1]"
  protein stability index: 3.05
- Sequence Text: "YIEASGREGIWSKTIKA [RPC34]"
  protein stability index: 2.3
- Sequence Text: "GGQHHHRINMDKYHPGY [RPL28]"
  protein stability index: 3.14
- Sequence Text: "SMKYDNGVIIAADNLGS [PRE4]"
  protein stability index: 2.5
- Sequence Text: "SIEMEEETDDEDKQNIE [RRI2]"
  protein stability index: 3.39
- Sequence Text: "LPPEKIYSPLHSFIKML [SIR2]"
  protein stability index: 1.72
